Tested on: HCT-15
MEASUREMENT NOTES: MTT test, HCT-15
Format: cell-based
EXPERIMENTAL SETUP: Homo sapiens, 10^−5 M, 72 hours, control = 100%, mean ± SEM, read-out: average optical density (MTT), percentage relative to control
Could you please report measured viability at 10 µM for the items listed next?
One number for each entry, in %.

The following compounds have reported results that may help.
RECORD SMILES	UNIT OF MEASUREMENT	viability at 10 µM
COc1ccc(-c2cc3c(OC)cc(OC)cc3[nH]c2=O)cc1	%	97.2
Oc1ccc(-c2cc3c(O)cc(O)cc3nc2O)cc1	%	101
COc1ccc(-c2cc3c(OC)cc(OC)c4c3n(c2=O)CCC4=O)cc1	%	90.6
COc1ccc(-c2cc3c(OC)cc(OC)cc3n(C)/c2=N\Nc2ccccn2)cc1	%	76.1

Now take the following compound into account.
Please look up its viability at 10 µM: COc1ccc(-c2cc3c(OC)cc(OC)cc3n(CCc3nnn[nH]3)c2=O)cc1
73.9
